Assayed system: OCTN2 (organic cation/carnitine transporter 2) (Mus musculus, UniProt Q9Z0E8)
Sequence (Q9Z0E8 whole entry): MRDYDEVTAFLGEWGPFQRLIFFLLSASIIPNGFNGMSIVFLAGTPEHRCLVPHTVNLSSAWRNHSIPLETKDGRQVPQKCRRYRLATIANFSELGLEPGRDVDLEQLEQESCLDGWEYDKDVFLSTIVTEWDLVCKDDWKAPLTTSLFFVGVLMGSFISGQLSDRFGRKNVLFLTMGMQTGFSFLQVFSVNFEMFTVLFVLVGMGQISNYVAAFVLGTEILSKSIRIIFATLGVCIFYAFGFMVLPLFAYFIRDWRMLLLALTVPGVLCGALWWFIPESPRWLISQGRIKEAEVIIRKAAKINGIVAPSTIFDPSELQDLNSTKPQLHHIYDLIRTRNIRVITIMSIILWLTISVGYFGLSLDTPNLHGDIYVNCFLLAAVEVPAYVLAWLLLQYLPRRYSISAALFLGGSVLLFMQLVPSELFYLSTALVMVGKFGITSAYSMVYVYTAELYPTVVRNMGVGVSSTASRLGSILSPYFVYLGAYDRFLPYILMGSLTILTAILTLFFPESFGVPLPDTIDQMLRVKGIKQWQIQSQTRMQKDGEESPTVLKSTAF
Experiment summary: TP_TRANSPORTER: inhibition of Carnitine uptake (Carnitine: 0.01 uM, Lidocaine: 500 uM) in OCTN2-expressing HEK293 cells
Assay type: functional, cell-based
Parameters: scale not given: the % may be the effect or the level left
Run conditions: human, HEK293 cells that express OCTN2, probe carnitine; read-out: Activity
Readout kind: activity at 500 µM

// query Recorded activity at 500 µM for CCN(CC)CC(=O)Nc1c(C)cccc1C with OCTN2 (organic cation/carnitine transporter 2) (Mus musculus, UniProt Q9Z0E8), please?
// result 57.1%
